- Tested on: A549 cells
- assay.details: Alamar Blue cytotoxicity assay, A549
- Format: cell-based, human
- applied.conditions: read-out: 24 h IC50 A549; Alamar Blue, 24 h treatment
The following compounds are listed with their measured IC50 values.
measurement.name: IC50 (µM)

>  <compound>
CC(=O)O[C@@]12CO[C@@H]1C[C@H](O)[C@@]1(C)C(=O)[C@H](O)C3=C(C)[C@@H](OC(=O)[C@H](O)[C@@H](NC(=O)OC(C)(C)C)c4ccccc4)C[C@@](O)([C@@H](OC(=O)c4ccccc4)[C@H]21)C3(C)C [Docetaxel, reference compound]

>  <reported.value>
50

$$$$
>  <compound>
COc1cc(OC)c(OC)cc1C=NNC(=O)CN1C(=O)NC(c2ccccc2)(c2ccccc2)C1=O

>  <reported.value>
116

$$$$

Data origin, for the record: paper PMC6598223
